Measured total protein half-life in vivo values are reported for all entries that follow.
Test: total protein half-life in vivo (active degradation + dilution); higher = more stable protein
Details: wild type E. coli NCM3722; growth: C-lim chemostat; doubling time 6 h
Report only the number, with the unit h understood.

| SEQUENCE | UNITS LABEL | RECORDED NUMBER |
| --- | --- | --- |
| MQTEHVILLNAQGVPTGTLEKYAAHTADTRLHLAFSSWLFNAKGQLLVTRRALSKKAWPGVWTNSVCGHPQLGESNEDAVIRRCRYELGVEITPPESIYPDFRYRATDPSGIVENEVCPVFAARTTSALQINDDEVMDYQWCDLADVLHGIDATPWAFSPWMVMQATNREARKRLSAFTQLK | h | 6.02 |
| MSKTFARSSLCALSMTIMTAHAAEPPTNLDKPEGRLDIIAWPGYIERGQTDKQYDWVTQFEKETGCAVNVKTAATSDEMVSLMTKGGYDLVTASGDASLRLIMGKRVQPINTALIPNWKTLDPRVVKGDWFNVGGKVYGTPYQWGPNLLMYNTKTFPTPPDSWQVVFVEQNLPDGKSNKGRVQAYDGPIYIADAALFVKATQPQLGISDPYQLTEEQYQAVLKVLRAQHSLIHRYWHDTTVQMSDFKNEGVVASSAWPYQANALKAEGQPVATVFPKEGVTGWADTTMLHSEAKHPVCAYKWMNWSLTPKVQGDVAAWFGSLPVVPEGCKASPLLGEKGCETNGFNYFDKIAFWKTPIAEGGKFVPYSRWTQDYIAIMGGR | h | 7.18 |

Recorded result, MTTQTVSGRRYFTKAWLMEQKSLIALLVLIAIVSTLSPNFFTINNLFNILQQTSVNAIMAVGMTLVILTSGIDLSVGSLLALTGAVAASIVGIEVNALVAVAAALALGAAIGAVTGVIVAKGRVQAFIATLVMMLLLRGVTMVYTNGSPVNTGFTENADLFGWFGIGRPLGVPTPVWIMGIVFLAAWYMLHHTRLGRYIYALGGNEAATRLSGINVNKIKIIVYSLCGLLASLAGIIEVARLSSAQPTAGTGYELDAIAAVVLGGTSLAGGKGRIVGTLIGALILGFLNNGLNLLGVSSYYQMIVKAVVILLAVLVDNKKQ [P0AGI1] , total protein half-life in vivo: 5.74

Recorded result, MSESLHLTRNGSILEITLDRPKANAIDAKTSFEMGEVFLNFRDDPQLRVAIITGAGEKFFSAGWDLKAAAEGEAPDADFGPGGFAGLTEIFNLDKPVIAAVNGYAFGGGFELALAADFIVCADNASFALPEAKLGIVPDSGGVLRLPKILPPAIVNEMVMTGRRMGAEEALRWGIVNRVVSQAELMDNARELAQQLVNSAPLAIAALKEIYRTTSEMPVEEAYRYIRSGVLKHYPSVLHSEDAIEGPLAFAEKRDPVWKGR , total protein half-life in vivo: 4.96

Recorded result, MTMKKLLIIILPVLLSGCSAFNQLVERMQTDTLEYQCDEKPLTVKLNNPRQEVSFVYDNQLLHLKQGISASGARYTDGIYVFWSKGDEATVYKRDRIVLNNCQLQNPQR , total protein half-life in vivo: 6.52

Recorded result, MSQLPGLSRETRESIAMYHLRVPQTEEELERYYQFRWEMLRKPLHQPKGSERDAWDAMAHHQMVVDEQGNLVAVGRLYINADNEASIRFMAVHPDVQDKGLGTLMAMTLESVARQEGVKRVTCSAREDAVEFFAKLGFVNQGEITTPTTTPIRHFLMIKPVATLDDILHRGDWCAQLQQAWYEHIPLSEKMGVRIQQYTGQKFITTMPETGNQNPHHTLFAGSLFSLATLTGWGLIWLMLRERHLGGTIILADAHIRYSKPISGKPHAVADLGALSGDLDRLARGRKARVQMQVEIFGDETPGAVFEGTYIVLPAKPFGPYEEGGNEEE [P0ADQ2] , total protein half-life in vivo: 5.57

Provenance of the data: the supplement of paper PMC11246515
